// provenance: a collection of fitness landscapes (doi:10.1126/science.1257360)

B1: PhoQ; a variant is named by its letters at X, in order, P23837 (parent)
chain: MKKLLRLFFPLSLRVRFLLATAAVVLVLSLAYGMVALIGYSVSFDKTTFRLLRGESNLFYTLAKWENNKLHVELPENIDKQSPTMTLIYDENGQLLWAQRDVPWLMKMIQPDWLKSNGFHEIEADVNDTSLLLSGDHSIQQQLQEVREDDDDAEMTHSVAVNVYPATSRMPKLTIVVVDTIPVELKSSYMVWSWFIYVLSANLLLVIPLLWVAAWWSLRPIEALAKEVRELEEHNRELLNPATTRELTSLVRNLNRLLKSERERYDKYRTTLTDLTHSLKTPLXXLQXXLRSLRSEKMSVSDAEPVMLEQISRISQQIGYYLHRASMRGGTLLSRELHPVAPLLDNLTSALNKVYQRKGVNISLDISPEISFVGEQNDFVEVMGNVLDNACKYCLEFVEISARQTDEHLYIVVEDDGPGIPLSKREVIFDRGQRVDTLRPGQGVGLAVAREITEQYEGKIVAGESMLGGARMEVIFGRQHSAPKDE

variants of: B1; assay: enrichment ratio after two sorts for PhoP signalling (ratio (wild type AVST 3.29)); higher = more functional; conditions: with PhoP (E. coli)
In all, about 140,000 sequences were measured (“enrichment ratio after two sorts for PhoP signalling”: median about 0, highest 2% from about 11 on). Shown is part of a subset that was picked to be rich in the highest values.
Reported Metric: enrichment ratio

Sequence Variant	Assay Value
ECYK	≤ 0.25
QAAW	≤ 0.25
KAFM	≤ 0.25
TGQE	24.5
YTFM	≤ 0.25
KMQE	≤ 0.25
MTFM	17.1
KSAS	≤ 0.25
